In this section we review reported IC50 values for a set of molecules.
Target: human factor XIa (Homo sapiens, UniProt P03951)
Sequence (P03951 388-625 limits assumed): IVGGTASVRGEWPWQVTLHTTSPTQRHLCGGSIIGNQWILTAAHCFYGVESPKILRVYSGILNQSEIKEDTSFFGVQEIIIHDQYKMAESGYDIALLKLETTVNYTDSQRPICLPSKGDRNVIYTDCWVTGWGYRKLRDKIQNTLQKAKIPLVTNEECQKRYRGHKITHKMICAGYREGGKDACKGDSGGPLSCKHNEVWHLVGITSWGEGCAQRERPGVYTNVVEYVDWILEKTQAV
Sequence (P03951 19-387 partner limits assumed): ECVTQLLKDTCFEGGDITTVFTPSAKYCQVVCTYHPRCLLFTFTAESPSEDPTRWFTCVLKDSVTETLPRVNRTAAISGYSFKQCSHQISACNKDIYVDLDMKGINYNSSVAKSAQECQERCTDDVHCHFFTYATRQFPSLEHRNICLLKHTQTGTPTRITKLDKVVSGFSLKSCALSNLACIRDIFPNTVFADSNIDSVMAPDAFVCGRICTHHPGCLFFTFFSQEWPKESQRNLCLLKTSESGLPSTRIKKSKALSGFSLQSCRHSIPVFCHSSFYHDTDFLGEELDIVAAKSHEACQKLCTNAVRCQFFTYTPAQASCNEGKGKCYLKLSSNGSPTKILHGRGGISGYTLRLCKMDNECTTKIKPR
Structures can show the parent of a compound that is named as a salt.
Just the number please, in nM, no unit attached.

Query string: Given the entry Cc1cc(C(=O)NC2CCNCC2)ccc1-c1ccc(C[C@H](NC(=O)[C@H]2CC[C@H](CN)CC2)C(=O)Nc2ccc3c(=O)[nH][nH]c3c2)cc1 [Example 22, hydrochloride] , report its measured IC50.
Result string: 15

Query string: Given the entry Cc1cc(C(=O)N[C@H]2CCNC2)ccc1-c1ccc(C[C@H](NC(=O)[C@H]2CC[C@H](CN)CC2)C(=O)Nc2ccc(-c3nnc(Cl)[nH]3)cc2)cc1 [Example 83, hydrochloride] , report its measured IC50.
Result string: 2.5

Query string: Given the entry CCN(CC)CCNC(=O)c1ccc(-c2ccc(C[C@H](NC(=O)[C@H]3CC[C@H](CN)CC3)C(=O)Nc3ccc(-c4nn[nH]n4)cc3)cc2)cc1 [Example 38, hydrochloride] , report its measured IC50.
Result string: 14

Query string: Given the entry Cc1cc(C(=O)NCCO)ccc1-c1ccc(C[C@H](NC(=O)[C@H]2CC[C@H](CN)CC2)C(=O)Nc2ccc(-c3nn[nH]n3)cc2)cc1 [Example 18, hydrochloride] , report its measured IC50.
Result string: 3.7

Query string: Given the entry Cc1cc(C(N)=O)ccc1-c1ccc(C[C@H](NC(=O)[C@H]2CC[C@H](CN)CC2)C(=O)Nc2ccc(-c3nn[nH]n3)cc2)cc1 [Example 14, hydrochloride] , report its measured IC50.
Result string: 1.4

Query string: Given the entry CCOc1cc(C(=O)NC2CCNCC2)ccc1-c1ccc(C[C@H](NC(=O)[C@H]2CC[C@H](CN)CC2)C(=O)Nc2ccc(-c3nn[nH]n3)cc2)cc1 [Example 119, hydrochloride] , report its measured IC50.
Result string: 2.1

New cases:
Query string: Given the entry Cc1cc(C(=O)NCCCN(C)C)ccc1-c1ccc(C[C@H](NC(=O)[C@H]2CC[C@H](CN)CC2)C(=O)Nc2ccc(-c3nn[nH]n3)cc2)cc1 [Example 35, hydrochloride] , report its measured IC50.
Result string: 2.3

Query string: Given the entry Cc1cc(C(=O)N[C@H]2CC[C@H](O)CC2)ccc1-c1ccc(C[C@H](NC(=O)[C@H]2CC[C@H](CN)CC2)C(=O)Nc2ccc(-c3nn[nH]n3)cc2)cc1 [Example 33, hydrochloride] , report its measured IC50.
Result string: 0.78

Query string: Given the entry Cc1cc(C(=O)NC2CCC(N(C)C)CC2)ccc1-c1ccc(CC(NC(=O)[C@H]2CC[C@H](CN)CC2)C(=O)Nc2ccc(-c3nc(C(F)(F)C(F)(F)C(=O)O)n[nH]3)cc2)cc1 (some centres unmarked) [Example 101, hydrochloride] , report its measured IC50.
Result string: 1.1

Query string: Given the entry CCN(CC)C1CCC(NC(=O)c2ccc(-c3ccc(C[C@H](NC(=O)[C@H]4CC[C@H](CN)CC4)C(=O)Nc4ccc5c(Cl)n[nH]c5c4)cc3)c(C)c2)CC1 (some centres unmarked) [Example 94, hydrochloride] , report its measured IC50.
Result string: 9.2

Query string: Given the entry COCc1nnc(-c2ccc(NC(=O)[C@H](Cc3ccc(-c4ccc(C(=O)NC5CCNCC5)cc4C)cc3)NC(=O)[C@H]3CC[C@H](CN)CC3)cc2)[nH]1 [Example 54, hydrochloride] , report its measured IC50.
Result string: 16
